# MEASUREMENT_TARGET: hVR1 (Homo sapiens)
# Construct: expressed in transfected cells; host or cells: HEK293
# ASSAY: Human VR1 (hVR1) Functional Assay (FLIPR intracellular calcium, capsaicin challenge)
# Type: cell-based
# ASSAY_SETUP: test concentration 1 μM; capsaicin 0.030 μM; HEK293 cells expressing hVR1
REPORTED_ENDPOINT: inhibition at 1 µM (%)

[ask] Entry NS(=O)(=O)c1ccccc1-c1ccc2[nH]c(/C=C/c3ccc(C(F)F)cc3)nc2c1 has what inhibition at 1 µM?
[reply] 97

[ask] Consider next the compound CNS(=O)(=O)c1ccccc1-c1ccc2[nH]c(/C=C/c3ccc(Cl)c(Cl)c3)nc2c1 in the same way.
[reply] 101

[ask] Consider next the compound CNS(=O)(=O)c1ccccc1-c1ccc2[nH]c(/C=C/c3ccc(C(F)(F)F)cc3C(F)(F)F)nc2c1 in the same way.
[reply] 100

[ask] Consider next the compound CS(=O)(=O)Nc1ccccc1-c1ccc2[nH]c(/C=C/c3ccc(OCC(F)(F)F)cc3)nc2c1 in the same way.
[reply] 81

[ask] Consider next the compound CNS(=O)(=O)c1ccccc1-c1ccc2[nH]c(/C=C/c3ccc(F)c(Cl)c3)nc2c1 in the same way.
[reply] 100

[ask] Consider next the compound NS(=O)(=O)c1ccccc1-c1ccc2[nH]c(/C=C/c3ccc(Cl)cc3)nc2c1 in the same way.
[reply] 100

====

# MEASUREMENT_TARGET: hVR1 (Homo sapiens)
# Construct: expressed in transfected cells; host or cells: HEK293
# ASSAY: Human VR1 (hVR1) Functional Assay (FLIPR intracellular calcium, capsaicin challenge)
# Type: cell-based
# ASSAY_SETUP: test concentration 1 μM; capsaicin 0.030 μM; HEK293 cells expressing hVR1
REPORTED_ENDPOINT: inhibition at 1 µM (%)

[ask] Entry CNS(=O)(=O)c1ccccc1-c1ccc2[nH]c(/C=C/c3cc(F)cc(C(F)(F)F)c3)nc2c1 [Cpd 322] has what inhibition at 1 µM?
[reply] 101

[ask] Consider next the molecule CC(C)(O)c1ccccc1-c1ccc2[nH]c([C@H]3C[C@@H]3c3ccc(C(F)(F)F)cc3)nc2c1 [Cpd 503] in the same way.
[reply] 93

[ask] Consider next the molecule COc1ccc(C2CC2c2nc3cc(-c4ccccc4C(C)(C)O)ccc3[nH]2)cc1 (stereo not drawn) [Cpd 494] in the same way.
[reply] 93

====

# MEASUREMENT_TARGET: hVR1 (Homo sapiens, UniProt Q8NER1)
# Construct: expressed in transfected cells; host or cells: HEK293
# Sequence (Q8NER1 whole entry): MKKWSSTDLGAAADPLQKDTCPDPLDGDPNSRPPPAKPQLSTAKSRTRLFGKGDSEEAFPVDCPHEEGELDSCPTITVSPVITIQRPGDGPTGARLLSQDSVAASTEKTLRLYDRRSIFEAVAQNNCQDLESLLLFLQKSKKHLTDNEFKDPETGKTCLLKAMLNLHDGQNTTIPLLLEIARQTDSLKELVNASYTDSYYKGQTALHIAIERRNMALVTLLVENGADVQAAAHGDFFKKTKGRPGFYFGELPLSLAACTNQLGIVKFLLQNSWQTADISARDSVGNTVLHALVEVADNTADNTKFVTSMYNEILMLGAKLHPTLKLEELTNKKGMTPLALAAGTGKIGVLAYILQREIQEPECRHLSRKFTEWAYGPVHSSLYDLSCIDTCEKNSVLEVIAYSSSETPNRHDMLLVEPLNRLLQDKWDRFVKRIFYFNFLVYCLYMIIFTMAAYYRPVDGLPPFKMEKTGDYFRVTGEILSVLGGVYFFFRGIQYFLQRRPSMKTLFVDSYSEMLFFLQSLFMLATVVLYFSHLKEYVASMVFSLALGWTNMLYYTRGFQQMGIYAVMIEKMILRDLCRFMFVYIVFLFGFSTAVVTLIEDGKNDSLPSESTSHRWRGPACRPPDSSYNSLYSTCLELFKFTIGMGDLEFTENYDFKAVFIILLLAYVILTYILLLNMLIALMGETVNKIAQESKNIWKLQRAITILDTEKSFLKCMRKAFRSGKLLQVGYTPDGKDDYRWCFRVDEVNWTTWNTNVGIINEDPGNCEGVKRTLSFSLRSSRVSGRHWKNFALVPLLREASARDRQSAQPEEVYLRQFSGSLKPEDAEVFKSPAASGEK
# ASSAY: Human VR1 (hVR1) Functional Assay (FLIPR intracellular calcium, capsaicin challenge)
# Format: cell-based
# ASSAY_SETUP: test concentration 1 μM; capsaicin 0.030 μM; HEK293 cells expressing hVR1
REPORTED_ENDPOINT: inhibition at 1 µM (%)

[ask] Entry NS(=O)(=O)c1ccccc1-c1ccc2[nH]c(/C=C/c3ccc(F)cc3C(F)(F)F)nc2c1 has what inhibition at 1 µM?
[reply] 98

[ask] Consider next the compound CC(C)(O)c1ccccc1-c1ccc2[nH]c(/C=C/c3cccc(C(F)(F)F)c3)nc2c1 in the same way.
[reply] 99

[ask] Consider next the compound NS(=O)(=O)c1ccccc1-c1ccc2[nH]c(/C=C/c3cc(C(F)(F)F)ccc3C(F)(F)F)nc2c1 in the same way.
[reply] 99

[ask] Consider next the compound CC(C)(O)c1ccccc1-c1ccc2[nH]c(/C=C/c3ccc4ncccc4c3)nc2c1 in the same way.
[reply] 100

[ask] Consider next the compound NS(=O)(=O)c1ccccc1-c1ccc2[nH]c(CCc3cc(F)ccc3F)nc2c1 in the same way.
[reply] 99

====

# MEASUREMENT_TARGET: hVR1 (Homo sapiens)
# Construct: expressed in transfected cells; host or cells: HEK293
# ASSAY: Human VR1 (hVR1) Functional Assay (FLIPR intracellular calcium, capsaicin challenge)
# Type: cell-based
# ASSAY_SETUP: test concentration 1 μM; capsaicin 0.030 μM; HEK293 cells expressing hVR1
REPORTED_ENDPOINT: inhibition at 1 µM (%)

[ask] Entry NS(=O)(=O)c1ccccc1-c1ccc2[nH]c(/C=C/c3ccc(F)cc3F)nc2c1 [Cpd 357] has what inhibition at 1 µM?
[reply] 100

[ask] Consider next the molecule NS(=O)(=O)c1ccccc1-c1ccc2[nH]c(CCc3ccccc3)nc2c1 [Cpd 397] in the same way.
[reply] 99

[ask] Consider next the molecule CC(C)(C)c1ccc(CCc2nc3cc(-c4ccccc4O)ccc3[nH]2)cc1 [Cpd 32] in the same way.
[reply] 77

====

# MEASUREMENT_TARGET: hVR1 (Homo sapiens, UniProt Q8NER1)
# ASSAY: Human VR1 (hVR1) Functional Assay (FLIPR intracellular calcium, capsaicin challenge)
# ASSAY_SETUP: capsaicin 0.030 μM; HEK293 cells expressing hVR1
REPORTED_ENDPOINT: IC50 (nM)

// below: answered compounds
[ask] Entry NS(=O)(=O)c1ccccc1-c1ccc2[nH]c(/C=C/c3ccc(F)c(Br)c3)nc2c1 [Cpd 439] has what IC50?
[reply] 23

[ask] Consider next the compound CC(C)(O)c1ccccc1-c1ccc2[nH]c([C@@H]3C[C@H]3c3ccc(C(F)(F)F)cc3)nc2c1 [Cpd 501] in the same way.
[reply] 85

[ask] Consider next the compound NS(=O)(=O)c1ccccc1-c1ccc2[nH]c(CCc3ccc(F)cc3)nc2c1 [Cpd 420] in the same way.
[reply] 15

A: CNS(=O)(=O)c1ccccc1-c1ccc2[nH]c(/C=C/c3ccc(F)c(Cl)c3)nc2c1 [Cpd 321]
B: NS(=O)(=O)c1ccccc1-c1ccc2[nH]c(/C=C/c3ccc(Br)cc3)nc2c1 [Cpd 363]
C: CS(=O)(=O)c1cc(Cl)ccc1/C=C/c1nc2cc(-c3ccccc3S(N)(=O)=O)ccc2[nH]1 [Cpd 375]
D: CCOC(=O)c1ccccc1-c1ccc2[nH]c(/C=C/c3ccc(C(F)(F)F)cc3)nc2c1 [Cpd 466]
E: CNS(=O)(=O)c1ccccc1-c1ccc2[nH]c(/C=C/c3ccc(C(F)(F)F)cc3)nc2c1 [Cpd 310]
[ask] // ascending sort on recorded IC50 The response must list the labels following the requested ordering.
[reply] E, B, A, D, C
(E: 6 nM, B: 12 nM, A: 18 nM, D: 71 nM, C: 139 nM)

P: CC(C)(O)c1ccccc1-c1ccc2[nH]c(/C=C/c3ccc4ncccc4c3)nc2c1 [Cpd 449]
Q: CNS(=O)(=O)c1ccccc1-c1ccc2[nH]c(/C=C/c3ccc(C)cc3)nc2c1 [Cpd 314]
R: CCS(=O)(=O)Nc1ccccc1-c1ccc2[nH]c(/C=C/c3ccc(C(F)(F)F)cc3)nc2c1 [Cpd 461]
S: NS(=O)(=O)c1ccccc1-c1ccc2[nH]c(/C=C/c3c(F)cccc3Cl)nc2c1 [Cpd 438]
[ask] // ascending sort on recorded IC50 The response must list the labels following the requested ordering.
[reply] R, P, Q, S

A: NS(=O)(=O)c1ccccc1-c1ccc2[nH]c(/C=C/c3ccc(F)c(F)c3F)nc2c1 [Cpd 370]
B: NS(=O)(=O)c1ccccc1-c1ccc2[nH]c(/C=C/c3cc(F)ccc3F)nc2c1 [Cpd 360]
C: NS(=O)(=O)c1ccccc1-c1ccc2[nH]c(CCc3cc(F)c(F)cc3F)nc2c1 [Cpd 385]
[ask] // ascending sort on recorded IC50 The response must list the labels following the requested ordering.
[reply] A, C, B
(A: 13 nM, C: 21 nM, B: 46 nM)

a: NS(=O)(=O)c1ccccc1-c1ccc2[nH]c(CCc3cccc(C(F)(F)F)c3)nc2c1 [Cpd 175]
b: CS(=O)(=O)Nc1ccccc1-c1ccc2[nH]c(/C=C/c3ccc(C(F)(F)F)c(F)c3)nc2c1 [Cpd 417]
c: CNS(=O)(=O)c1ccccc1-c1ccc2[nH]c(/C=C/c3cccc(Br)c3)nc2c1 [Cpd 338]
d: NS(=O)(=O)c1ccccc1-c1ccc2[nH]c(/C=C/c3ccc(Cl)cc3F)nc2c1 [Cpd 428]
[ask] Rank descending by IC50. The response must list the labels following the requested ordering.
[reply] c, a, b, d
(c: 104 nM, a: 16 nM, b: 11 nM, d: 7 nM)

1: CS(=O)(=O)Nc1ccccc1-c1ccc2[nH]c(CCc3ccc(C(F)(F)F)cc3)nc2c1 [Cpd 31]
2: OCc1ccccc1-c1cc2nc(/C=C/c3ccc(C(F)(F)F)cc3)[nH]c2cc1F [Cpd 61]
[ask] When 1 and 2 are compared, which has the higher number for IC50? Respond using the label that marks the chosen record.
[reply] 2

A: NS(=O)(=O)c1ccccc1-c1ccc2[nH]c(/C=C/c3ccc(F)c(Cl)c3)nc2c1 [Cpd 432]
B: NS(=O)(=O)c1ccccc1-c1ccc2[nH]c(/C=C/c3ccc4ccccc4c3)nc2c1 [Cpd 433]
C: CNS(=O)(=O)c1ccccc1-c1ccc2[nH]c(/C=C/c3ccccc3C(F)(F)F)nc2c1 [Cpd 343]
D: CNS(=O)(=O)c1ccccc1-c1ccc2[nH]c(/C=C/c3ccccc3Br)nc2c1 [Cpd 348]
[ask] Rank descending by IC50. The response must list the labels following the requested ordering.
[reply] C, D, A, B
